Can you tell me remaining activity at 10 µM for the items I'm about to list?
- ASSAYED_SYSTEM: mPGES-1 (Homo sapiens, UniProt O14684)
- Construct: endogenous in cells; host or cells: A549 cells stimulated with IL-1β; microsomal fraction
- TEST_PROTOCOL: Cell-free mPGES-1 activity assay (PGE2 biosynthesis)
- Format: biochemical
- RUN_CONDITIONS: 10 μM, percentage of control (100%), read-out: mPGES-1 residual activity at 10 μM (%)
Could you give me the number in %? Just the number is fine.

For mPGES-1 (Homo sapiens, UniProt O14684), give the measured remaining activity at 10 µM of the entry `Nc1ccccc1-c1ccc(-c2nnc(NC(=O)c3c(Cl)ccnc3Cl)s2)cc1`
20.9

For mPGES-1 (Homo sapiens, UniProt O14684), give the measured remaining activity at 10 µM of the entry `Cc1cc(C(=O)Nc2nnc(-c3ccc(-c4ccccc4N)cc3)s2)cc(Cl)n1`
31.7

For mPGES-1 (Homo sapiens, UniProt O14684), give the measured remaining activity at 10 µM of the entry `Nc1ccccc1-c1ccc(-c2nnc(NC(=O)c3ccccc3Br)s2)cc1`
16.7

For mPGES-1 (Homo sapiens, UniProt O14684), give the measured remaining activity at 10 µM of the entry `O=C(Nc1nnc(-c2ccc(-c3cccc(O)c3)cc2)s1)c1ccccc1Br`
8.4

====

- ASSAYED_SYSTEM: Human recombinant sEH (Homo sapiens, UniProt P34913)
- Construct: made in house; host or cells: Sf9 cells infected with a baculovirus provided by Dr. B. Hammock
- Sequence (P34913 whole entry): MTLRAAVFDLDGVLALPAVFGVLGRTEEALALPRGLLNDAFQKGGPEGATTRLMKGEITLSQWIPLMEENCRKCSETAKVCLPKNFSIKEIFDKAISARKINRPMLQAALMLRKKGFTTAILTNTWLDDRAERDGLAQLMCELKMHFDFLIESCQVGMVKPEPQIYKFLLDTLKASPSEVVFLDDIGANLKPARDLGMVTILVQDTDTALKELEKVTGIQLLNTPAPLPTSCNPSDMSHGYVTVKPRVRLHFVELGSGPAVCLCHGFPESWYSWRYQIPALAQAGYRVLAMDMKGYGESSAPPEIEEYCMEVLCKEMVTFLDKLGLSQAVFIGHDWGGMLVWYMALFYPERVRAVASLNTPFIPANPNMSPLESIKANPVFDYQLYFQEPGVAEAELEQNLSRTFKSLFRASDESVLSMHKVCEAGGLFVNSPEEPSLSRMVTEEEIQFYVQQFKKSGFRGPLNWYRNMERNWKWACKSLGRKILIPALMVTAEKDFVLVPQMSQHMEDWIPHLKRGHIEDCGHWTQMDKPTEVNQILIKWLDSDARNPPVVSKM
- TEST_PROTOCOL: Activity assay of human recombinant sEH
- Assay type: biochemical
- RUN_CONDITIONS: percentage of uninhibited control (100%), n = 3, n.i.: no inhibitory activity observed, read-out: sEH residual activity (%)
PARAMETER_MEASURED: remaining activity at 10 µM

Supply reported remaining activity at 10 µM belonging to this compound: O=C(Nc1nnc(-c2ccc(-c3cccc(O)c3)cc2)s1)c1ccccc1Br [compound 3]
96%

Supply reported remaining activity at 10 µM belonging to this compound: Nc1ccccc1-c1ccc(-c2nnc(NC(=O)c3ccccc3Br)s2)cc1 [compound 7]
164%

Supply reported remaining activity at 10 µM belonging to this compound: Nc1ccccc1-c1ccc(-c2nnc(NC(=O)c3c(Cl)ccnc3Cl)s2)cc1 [compound 9]
83.9%

Supply reported remaining activity at 10 µM belonging to this compound: Cc1cc(C(=O)Nc2nnc(-c3ccc(-c4ccccc4N)cc3)s2)cc(Cl)n1 [compound 6]
67.7%

====

- ASSAYED_SYSTEM: mPGES-1 (Homo sapiens, UniProt O14684)
- Construct: endogenous in cells; microsomal fraction
- Sequence (O14684 1-152): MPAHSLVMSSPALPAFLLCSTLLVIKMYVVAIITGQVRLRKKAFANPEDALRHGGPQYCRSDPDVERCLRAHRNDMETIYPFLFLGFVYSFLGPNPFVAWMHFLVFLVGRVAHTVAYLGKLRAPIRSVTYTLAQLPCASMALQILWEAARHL
- TEST_PROTOCOL: Cell-free mPGES-1 activity assay (PGE2 biosynthesis)
- RUN_CONDITIONS: n = 3, read-out: IC50 value ± SEM (mPGES-1, cell-free)
PARAMETER_MEASURED: pIC50
pIC50 is defined as minus the log10 of a concentration measured in mol/L.

For mPGES-1 (Homo sapiens, UniProt O14684), give the measured pIC50 of the entry `Nc1ccccc1-c1ccc(-c2nnc(NC(=O)c3ccccc3Br)s2)cc1`
6.82

For mPGES-1 (Homo sapiens, UniProt O14684), give the measured pIC50 of the entry `Nc1ccccc1-c1ccc(-c2nnc(NC(=O)c3c(Cl)ccnc3Cl)s2)cc1`
5.77

For mPGES-1 (Homo sapiens, UniProt O14684), give the measured pIC50 of the entry `O=C(Nc1nnc(-c2ccc(-c3cccc(O)c3)cc2)s1)c1ccccc1Br`
6.70

For mPGES-1 (Homo sapiens, UniProt O14684), give the measured pIC50 of the entry `Cc1cc(C(=O)Nc2nnc(-c3ccc(-c4ccccc4N)cc3)s2)cc(Cl)n1`
5.51
